test: protein stability index of a GFP-peptide fusion (yeast GPS) (PSI 1-4); higher = more stable; sorted into four equal gates, so the index is relative within each strain; settings: ubr1∆
measurement.label: protein stability index
Form field (numeric): enter value without unit.

A selection of reference data follows.
I have this sequence here, SKIFNESFPDDIPLAKA [CDC53] , and I need its recorded protein stability index.
2.82

Record request: protein stability index value, item NIVSDAGANDTSNNETN [GRR1]
2.71

Can you share its protein stability index? I mean this sequence: IGDVDGLIVNPVKVSGT [POP5]
2.64

# lookup: protein stability index of ESSLTISLYFNDILDEL [ECM29]
2.4

Need protein stability index of VLRLRGALVDRTQPWSI [RPS0A] , thanks.
3.08

Others:
Give the measured protein stability index of EAAKPSLSFGSGSAGAN [YJL041W/NSP1] .
3

Using the record for DHEFVLISLIMTTWRKL [YMR129W/POM152] , report its protein stability index.
1.26
